- target of assay: Mcl-1 (Homo sapiens)
- Construct: myc-Mcl-1 SPOT array & FP; made in house
- Sequence (Q07820 with tags, fused parts or gaps): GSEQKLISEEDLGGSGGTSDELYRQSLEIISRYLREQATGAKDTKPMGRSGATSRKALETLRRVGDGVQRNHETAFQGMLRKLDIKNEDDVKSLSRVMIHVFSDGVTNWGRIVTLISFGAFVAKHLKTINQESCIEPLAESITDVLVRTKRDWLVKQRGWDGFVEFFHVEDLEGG
- test details: Fluorescence polarization direct binding
- particulars: FP direct binding; 10 nM FAM-labeled peptide, receptor titrated; 25°C, pH 7.8; fit of all replicate titrations; X+number in a cell = highest concentration (nM) measured with no binding detected, given here as >; SPNS1 fit to raw fluorescence
No end group written: not given here.
readout: Kd (nM)
Answers are plain numbers, in nM.

[[record]]
substance = "GSGAWGLLLRRVGDDVLVHLLAR-NH2 [TERT]"
readout = "Kd"
obs_value = 69

[[record]]
substance = "SKFVILSAHKLVFIGDTLSRQAKAAD-NH2 [BCAR1]"
readout = "Kd"
obs_value = 912

[[record]]
substance = "RYRHGAPAEQLRHLADMLTTKWATLQ-NH2 [PLEKHH1]"
readout = "Kd"
obs_value = 977

[[record]]
substance = "RVEQMAIQIKEVGDRVNYIKRSL-NH2 [TRPM7]"
readout = "Kd"
obs_value = 592

[[record]]
substance = "LRLFLAQRLRWLADSAPASRATA-NH2 [NBEAL2]"
readout = "Kd"
obs_value = 3810

[[record]]
substance = "FTGNNTAVQELKRVSEQFTATFRRKA-NH2 [TUBB4Q]"
readout = "Kd"
obs_value = 1460

[[record]]
substance = "GDSVLARMLRELGDSLRRPQLRL-NH2 [SLC19A1]"
readout = "Kd"
obs_value = 22

[[record]]
substance = "ELQELARKLQELADASENLLTEN-NH2 [TXNDC11]"
readout = "Kd"
obs_value = 2380

[[record]]
substance = "QRKHEGFERDLAALGDKVNSLGETAE-NH2 [SPTAN1]"
readout = "Kd"
obs_value = 3850

[[record]]
substance = "KREKLVEILRNIGDERTMVFVET-NH2 [DDX4]"
readout = "Kd"
obs_value = 142


Hi, could you look up Kd for each item in my list?
1. SYMVLAPVFGYLGDRYNRKYLMA-NH2 [SPNS1]
2. THEEVVHLLRNAGDEVTITVEYL-NH2 [SNTG2]

Found:
1. 19
2. 22

---

Would you kindly list log10 of Kd for each of these substances?
- target of assay: Bcl-2 (Homo sapiens, UniProt P10415, DEL53-91)
- Construct: myc- Bcl-2 FP; made in house
- Sequence (P10415 with tags, fused parts or gaps DEL53-91): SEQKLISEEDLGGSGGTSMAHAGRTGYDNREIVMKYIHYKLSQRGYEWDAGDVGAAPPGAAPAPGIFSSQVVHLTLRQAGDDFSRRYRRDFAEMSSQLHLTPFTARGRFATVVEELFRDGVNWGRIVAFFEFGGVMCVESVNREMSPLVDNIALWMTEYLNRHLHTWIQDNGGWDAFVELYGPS
- test details: Fluorescence polarization direct binding
- particulars: FP direct binding; 10 nM FAM-labeled peptide, receptor titrated; 25°C, pH 7.8; fit of all replicate titrations; X+number in a cell = highest concentration (nM) measured with no binding detected, given here as >; SPNS1 fit to raw fluorescence; read-out: Best-fit KD, Bcl-2
No end group written: not given here.
Response schema: value (number) is log10 of Kd in units of nM.

Hi, could you look up log10 of Kd for each item in my list?
1. ATKRETAATFLKKVAKEFGFQNNGFS-NH2 [NPLOC4]
2. GSGAWGLLLRRVGDDVLVHLLAR-NH2 [TERT]

Found:
3.31
1.69

Hi, could you look up log10 of Kd for each item in my list?
1. RSMVFARHLREVGDEFRSRHLNS-NH2 [POFUT2]
2. DARDYAVVLRKYADKIYSISMKH-NH2 [FOLH1]
3. EVLAGPLAQRLSHIAEDVGRLVKKSR-NH2 [ARHGAP4]
4. KKMTLSEIYRWIADNFPYYKNAG-NH2 [FOXJ2]

Found:
1. 1.99
2. 1.85
3. 3.78
4. 2.11
